Assayed system: G-protein coupled receptor 35 (Mus musculus)
Test method notes: Agonist activity at mouse GPR35 expressed in CHO cells assessed as induction of beta-arrestin recruitment at 10 uM after 90 mins by beta-galactosidase reporter gene assay relative to zaprinast
Type: cell-based
Readout: Emax (%)
# number only, unit % dropped from output

**Q:** Record request: Emax value, item O=C(O)c1cc(=O)c2c(OCC(O)COc3cccc4oc(C(=O)O)cc(=O)c34)cccc2o1 [CROMOLYN SODIUM]
**A:** 102

**Q:** Record request: Emax value, item COc1ccccc1C(=O)Nc1cc(Br)cc2c(=O)cc(C(=O)O)oc12
**A:** 71

**Q:** Record request: Emax value, item O=C(Nc1cccc2c(=O)cc(C(=O)O)oc12)c1ccc2ccccc2n1
**A:** 65

**Q:** Record request: Emax value, item COc1ccc(C(=O)Nc2cc(Br)cc3c(=O)cc(C(=O)O)oc23)cc1OC
**A:** 73

**Q:** Record request: Emax value, item COc1ccc(C(=O)Nc2cc(Br)cc3c(=O)cc(C(=O)O)oc23)cn1
**A:** 64

**Q:** Record request: Emax value, item O=C(Nc1cccc2c(=O)cc(C(=O)O)oc12)c1ccc2ccccc2c1
**A:** 79

**Q:** Record request: Emax value, item COc1ccc(C(=O)Nc2cccc3c(=O)cc(C(=O)O)oc23)cc1
**A:** 66
